target: human MDM2 protein (amino acids 2-188) (Homo sapiens (Human), UniProt Q00987); experiment: TR-FRET assay, p53-MDM2 Assay 2 (modified); assay type: binding; details: TR-FRET; 0.1 nM MDM2, 0.1 nM Europium labeled streptavidin, Tecan genios Pro reader; read-out: IC50 p53-MDM2 Assay 2
Sequence (Q00987 2-188): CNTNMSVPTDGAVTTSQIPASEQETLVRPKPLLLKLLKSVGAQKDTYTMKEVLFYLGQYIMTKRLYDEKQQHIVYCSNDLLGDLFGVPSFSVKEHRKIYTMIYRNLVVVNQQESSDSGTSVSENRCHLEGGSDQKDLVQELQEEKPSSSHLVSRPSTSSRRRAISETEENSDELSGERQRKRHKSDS
Parameter: IC50 (nM)

Recorded results for 2 molecules are shown here.
> print(dat)
                                   molecule                              study.target  parameter  display.unit  value.reported
1  COc1ncc(-c2cc3c(n2C(C)C)C(c2ccc(Cl)cc2)N(C2CCNCC2)C3=O)c(OC)n1 (stereo not shown)  human MDM2 protein (amino acids 2-188) (Homo sapiens (Human), UniProt Q00987)       IC50            nM             904
2  COc1ncc(-c2cc3c(n2C(C)C)C(c2ccc(Cl)cc2)N(c2cc(C)cn(C)c2=O)C3=O)c(OC)n1 (stereo not shown)  human MDM2 protein (amino acids 2-188) (Homo sapiens (Human), UniProt Q00987)       IC50            nM            1.16

(P) COc1ccc(C(=O)N2CCOCC2)cc1-c1cc2c(n1C(C)C)C(c1ccc(Cl)cc1)N(c1ccc(F)c(Cl)c1)C2=O (stereo not shown)
(Q) COc1ccccc1-c1cc2c(n1C(C)C)C(c1ccc(Cl)cc1)N(c1cc(Cl)ccc1C#N)C2=O (stereo not shown)
(R) CNc1ncc(-c2cc3c(n2C(C)C)C(c2ccc(C#N)cc2)N(c2cc(Cl)c[nH]c2=O)C3=O)c(OC)n1 (stereo not shown)
Incoming: Please list these molecules in decreasing order of IC50. To answer, arrange all of the labels according to the requested order.
Outgoing: Q, R, P
(Q: 1.95 nM, R: 0.527 nM, P: 0.287 nM)

(a) COc1nc(N(C)C)ncc1-c1cc2c(n1C(C)C)C(c1ccc(C#N)cc1)N(c1cc(Cl)ccc1C)C2=O (stereo not shown)
(b) COc1ccc(CO)cc1-c1cc2c(n1C(C)C)C(c1ccc(Cl)cc1C)N(c1cccc(Cl)c1F)C2=O (stereo not shown)
(c) COc1nc(N)ncc1-c1cc2c(n1C(C)C)C(c1ccc(Cl)cc1)N(c1cc(Cl)ccc1C#N)C2=O (stereo not shown)
(d) COc1ncc(-c2cc3c(n2C(C)C)C(c2ccc(Cl)cc2)N(c2cn(C)nc2C)C3=O)c(OC)n1 (stereo not shown)
(e) COc1nc(N(C)C)ncc1-c1cc2c(n1C(C)C)C(c1ccc(Cl)cc1)N([C@H]1CC[C@H](OC)CC1)C2=O (stereo partly shown)
Incoming: Put the molecules in ascending order of IC50. To answer, arrange all of the labels according to the requested order.
Outgoing: a, b, e, c, d

(I) COc1ncncc1-c1cc2c(n1C(C)C)C(c1ccc(Cl)cc1)N(c1cc(Cl)ccc1C)C2=O (stereo not shown)
(II) COc1ncccc1-c1cc2c(n1C(C)C)C(c1ccc(Cl)cc1C)N(c1cccc(Cl)c1F)C2=O (stereo not shown)
Incoming: API: POST /compare with I and II ; response names the item with higher IC50. State the label of the item chosen.
Outgoing: II
